- Assay comment: cells
- Settings: Homo sapiens, MCF-10A, read-out: MCF10A IC50
pIC50: −log10 of the molar value.
# pIC50 listing for each entry below

Give the reported pIC50 for this compound. Nc1cc(NC(=O)c2cc(F)cc(C(F)(F)F)c2)c2c(c1)C(=O)NC2c1cc(F)ccc1C(F)F (stereo not shown)
> 6.00

Give the reported pIC50 for this compound. O=C(Nc1cc(-c2cn[nH]c2)cc2c1C(c1cc(F)ccc1Cl)NC2=O)c1cc(F)cc(C(F)(F)F)c1 (stereo not shown)
> 6.00

Give the reported pIC50 for this compound. CC(C)(C#N)n1cc(-c2cc(NC(=O)N3C[C@@](O)(C(F)(F)F)c4cc(F)ccc43)c3c(c2)C(=O)N[C@@H]3c2cc(F)ccc2Cl)cn1 (single isomer, unassigned)
> 6.00

Give the reported pIC50 for this compound. Cc1cc2cnn(C)c2cc1-c1cc(NC(=O)c2cc(F)cc(C(F)(F)F)c2)c2c(c1)C(=O)NC2c1cc(F)ccc1Cl (stereo not shown)
5.00 to 5.30

Give the reported pIC50 for this compound. O=C(Nc1cc(-n2ccnc2)cc2c1C(c1cc(F)ccc1Cl)NC2=O)c1cc(F)cc(C(F)(F)F)c1 (stereo not shown)
> 6.00

Give the reported pIC50 for this compound. COc1cccc(-c2cc(NC(=O)c3cc(F)cc(C(F)(F)F)c3)c3c(c2)C(=O)N[C@H]3c2cc(F)ccc2Cl)n1 (stereo in doubt)
> 6.00

Give the reported pIC50 for this compound. O=C(Nc1cc(-c2cc3cccnc3[nH]2)cc2c1C(c1cc(F)ccc1Cl)NC2=O)c1cc(F)cc(C(F)(F)F)c1 (stereo not shown)
> 6.00

Give the reported pIC50 for this compound. O=C1N[C@H](c2cc(F)ccc2Cl)c2c(NC(=O)N3C[C@@](O)(C(F)(F)F)c4cc(F)ccc43)cc(N3CCOC3=O)cc21 (single isomer, unassigned)
> 6.00

Next:
Give the reported pIC50 for this compound. Cc1nc2ncc(-c3cc(NC(=O)c4cc(F)cc(C(F)(F)F)c4)c4c(c3)C(=O)NC4c3cc(F)ccc3Cl)cn2n1 (stereo not shown)
> 6.00

Give the reported pIC50 for this compound. Cn1ccc(-c2cc(NC(=O)c3cc(F)cc(C(F)(F)F)c3)c3c(c2)C(=O)NC3c2cc(F)ccc2Cl)n1 (stereo not shown)
> 6.00

Give the reported pIC50 for this compound. CC(C)(O)c1cc(NC(=O)c2cc(F)cc(Cl)c2)c2c(c1)C(=O)N[C@H]2c1cc(F)ccc1Cl
> 6.00

###

- Tested on: H1047R PIK3CA enzyme (Homo sapiens, UniProt P42336, H1047R)
- Sequence (P42336 whole entry H1047R): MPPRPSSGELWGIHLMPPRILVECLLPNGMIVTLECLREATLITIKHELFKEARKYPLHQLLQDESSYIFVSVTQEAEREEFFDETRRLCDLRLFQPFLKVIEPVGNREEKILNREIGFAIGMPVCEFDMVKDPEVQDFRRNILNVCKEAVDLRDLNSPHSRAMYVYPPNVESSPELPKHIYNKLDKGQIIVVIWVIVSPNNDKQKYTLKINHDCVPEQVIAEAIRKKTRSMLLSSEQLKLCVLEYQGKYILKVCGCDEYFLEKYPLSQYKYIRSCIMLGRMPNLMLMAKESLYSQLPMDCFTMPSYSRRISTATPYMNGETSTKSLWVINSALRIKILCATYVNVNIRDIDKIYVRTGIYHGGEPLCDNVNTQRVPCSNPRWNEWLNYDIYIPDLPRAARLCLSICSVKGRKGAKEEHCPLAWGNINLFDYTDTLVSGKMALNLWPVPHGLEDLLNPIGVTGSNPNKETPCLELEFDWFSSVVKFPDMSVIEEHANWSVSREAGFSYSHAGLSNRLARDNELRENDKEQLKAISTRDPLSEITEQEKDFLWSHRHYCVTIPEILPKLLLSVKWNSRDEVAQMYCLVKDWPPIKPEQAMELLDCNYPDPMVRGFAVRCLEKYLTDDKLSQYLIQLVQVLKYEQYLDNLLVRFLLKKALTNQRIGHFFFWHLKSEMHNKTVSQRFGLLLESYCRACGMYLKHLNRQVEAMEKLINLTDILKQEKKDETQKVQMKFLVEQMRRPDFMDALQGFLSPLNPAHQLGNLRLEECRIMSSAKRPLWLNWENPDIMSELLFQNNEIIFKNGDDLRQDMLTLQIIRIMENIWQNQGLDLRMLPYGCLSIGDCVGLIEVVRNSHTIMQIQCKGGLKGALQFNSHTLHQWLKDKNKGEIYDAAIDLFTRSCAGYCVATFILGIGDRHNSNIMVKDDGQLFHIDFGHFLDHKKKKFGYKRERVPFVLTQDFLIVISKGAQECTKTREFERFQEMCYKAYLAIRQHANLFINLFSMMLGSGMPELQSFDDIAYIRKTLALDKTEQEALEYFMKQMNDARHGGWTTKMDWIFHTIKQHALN
- Sequence (P27986 whole entry partner): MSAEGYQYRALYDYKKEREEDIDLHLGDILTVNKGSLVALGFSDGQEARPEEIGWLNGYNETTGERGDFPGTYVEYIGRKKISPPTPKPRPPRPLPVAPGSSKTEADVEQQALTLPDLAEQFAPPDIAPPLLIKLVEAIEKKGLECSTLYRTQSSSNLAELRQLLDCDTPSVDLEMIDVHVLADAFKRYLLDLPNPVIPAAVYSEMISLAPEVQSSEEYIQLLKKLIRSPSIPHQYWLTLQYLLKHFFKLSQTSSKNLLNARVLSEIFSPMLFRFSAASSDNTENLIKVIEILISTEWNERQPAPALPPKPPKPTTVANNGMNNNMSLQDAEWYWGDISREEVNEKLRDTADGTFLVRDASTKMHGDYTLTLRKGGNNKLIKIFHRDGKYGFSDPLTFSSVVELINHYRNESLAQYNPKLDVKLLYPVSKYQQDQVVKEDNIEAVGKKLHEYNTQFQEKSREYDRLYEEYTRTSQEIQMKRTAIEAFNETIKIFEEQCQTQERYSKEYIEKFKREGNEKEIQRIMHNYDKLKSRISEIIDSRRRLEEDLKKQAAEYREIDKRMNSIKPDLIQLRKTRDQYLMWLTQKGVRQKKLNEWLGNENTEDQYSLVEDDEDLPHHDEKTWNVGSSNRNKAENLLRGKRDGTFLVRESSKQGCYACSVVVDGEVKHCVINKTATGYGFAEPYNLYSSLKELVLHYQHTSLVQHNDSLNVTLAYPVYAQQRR
- Assay comment: ADP-Glo Biochemical PIK3CA Kinase Assay
- Experimental: Compounds to be assayed were plated in 16 doses of 1:2 serial dilutions (20 nL volume each well) on a 1536-well plate, and the plate warmed to room temperature. […] To the well was added 1 μL of 200 μM ATP and 20 μM of diC8-PIP2 in Substrate Assay Buffer (50 mM HEPES pH7.4, 50 mM NaCl, 5 mM DTT and 0.03% CHAPS) to start the reaction, and the plate was shaken for 10 seconds, then spun briefly at 1500 rpm, and then incubated for 60 minutes at room temperature. […]
Observable: IC50

Examples with answers:
Give the reported IC50 for this molecule. Cc1ccccc1-n1[nH]c(=O)c2cccc(N)c21 [Compound I-64]
1000 to 10000 nM

Give the reported IC50 for this molecule. O=C(Nc1cc(-c2cn3cccnc3n2)cc2c1C(c1cc(F)ccc1Cl)NC2=O)c1cc(F)cc(C(F)(F)F)c1 (stereo not drawn) [Compound I-1355]
≤ 100 nM

Give the reported IC50 for this molecule. N#CCCc1cc(NC(=O)N2C[C@H](O)c3cc(F)ccc32)c2c(c1)C(=O)N[C@@H]2c1cc(F)ccc1Cl (single isomer, unassigned) [Compound I-2349]
1000 to 10000 nM

Give the reported IC50 for this molecule. Cn1nccc1C(=O)c1cc(NC(=O)c2cc(F)cc(C(F)(F)F)c2)c2c(c1)C(=O)NC2c1cc(F)ccc1Cl (stereo not drawn) [Compound I-1380]
≤ 100 nM

Give the reported IC50 for this molecule. Cc1cn(-c2cc(NC(=O)N3C[C@@](O)(C(F)(F)F)c4cc(F)ccc43)c3c(c2)C(=O)N[C@H]3c2cc(F)ccc2Cl)cn1 (single isomer, unassigned) [Compound I-2638]
1000 to 10000 nM

Give the reported IC50 for this molecule. Cc1ccccc1C1NC(=O)c2cccc(NC(=O)c3noc4ccccc34)c21 (stereo not drawn) [Compound I-41]
10000 to 100000 nM

Give the reported IC50 for this molecule. O=C(Nc1cc(Br)cc2c1C(c1cc(F)ccc1Cl)NC2=O)c1cccc2c1OCCC2 (stereo not drawn) [Compound I-601]
10000 to 100000 nM

Give the reported IC50 for this molecule. Cc1ccccc1C1NC(=O)c2cc(C3(O)CCC3)cc(NC(=O)c3nsc4ccccc34)c21 (stereo not drawn) [Compound I-419]
≤ 100 nM

Give the reported IC50 for this molecule. O=C1N[C@@H](c2cc(F)ccc2Cl)c2c(NC(=O)N3C[C@H](O)C[C@@H]3CC(F)(F)F)cccc21 (racemic) [Compound I-2162]
1000 to 10000 nM

Give the reported IC50 for this molecule. Cn1ccc(Nc2cc(NC(=O)c3cc(F)cc(C(F)(F)F)c3)c3c(c2)C(=O)N[C@H]3c2cc(F)ccc2Cl)n1 [Compound I-1071]
≤ 100 nM

Next:
Give the reported IC50 for this molecule. Cc1ccccc1C1NC(=O)c2c(C#N)ccc(NC(=O)c3csc4ccccc34)c21 (stereo not drawn) [Compound I-132]
≤ 100 nM

Give the reported IC50 for this molecule. O=C(Nc1cc(-c2ccn3cnnc3c2)cc2c1C(c1cc(F)ccc1Cl)NC2=O)c1cc(F)cc(C(F)(F)F)c1 (stereo not drawn) [Compound I-1501]
≤ 100 nM

Give the reported IC50 for this molecule. CC(=O)N1CC[C@H](Oc2cc(NC(=O)c3cc(F)cc(C(F)(F)F)c3)c3c(c2)C(=O)NC3c2cc(F)ccc2Cl)C1 (single isomer, unassigned) [Compound I-1541]
100 to 500 nM

Give the reported IC50 for this molecule. O=C1N[C@H](c2cc(F)ccc2Cl)c2c(NC(=O)N3C[C@@](O)(C(F)(F)F)c4cc(F)ccc43)ccc(Cl)c21 (single isomer, unassigned) [Compound I-2620]
1000 to 10000 nM

Give the reported IC50 for this molecule. O=C(Nc1cc(Br)cc2c1C(c1cc(F)ccc1Cl)NC2=O)c1cc(F)cc(CF)c1 (stereo not drawn) [Compound I-1119]
500 to 1000 nM

###

- Tested on: H1047R PIK3CA enzyme (Homo sapiens, UniProt P42336, H1047R)
- Assay comment: ADP-Glo Biochemical PIK3CA Kinase Assay
Observable: IC50

Examples with answers:
Give the reported IC50 for this molecule. CC(C)(O)COc1ncc(-c2cc(NC(=O)c3cc(F)cc(C(F)(F)F)c3)c3c(c2)C(=O)NC3c2cc(F)ccc2Cl)cn1 (stereo not drawn)
≤ 100 nM

Give the reported IC50 for this molecule. O=C(Nc1cc(-c2ccc3nnc(C(F)F)n3c2)cc2c1[C@@H](c1cc(F)ccc1Cl)NC2=O)c1cc(F)cc(C(F)(F)F)c1
1000 to 10000 nM

Give the reported IC50 for this molecule. Cc1ccc(F)cc1C1NC(=O)c2cc(Br)cc(NC(=O)c3cc(F)cc(C(F)(F)F)c3)c21 (stereo not drawn)
≤ 100 nM

Give the reported IC50 for this molecule. O=C1NC(c2cc(F)ccc2Cl)c2c(NC(=O)N3CC(O)c4ccc(Cl)cc43)cccc21 (mixture of isomers)
≤ 100 nM

Give the reported IC50 for this molecule. N#Cc1cnccc1-c1cc(NC(=O)c2cc(F)cc(Cl)c2)c2c(n1)C(=O)NC2c1cc(F)ccc1Cl (stereo not drawn)
≤ 100 nM

Next:
Give the reported IC50 for this molecule. O=C(Nc1cc(NC(=O)c2cc(F)cc(C(F)(F)F)c2)c2c(c1)C(=O)N[C@H]2c1cc(F)ccc1Cl)c1cccnc1
≤ 100 nM

###

# IC50 listing for each entry below
- Tested on: H1047R PIK3CA enzyme (Homo sapiens, UniProt P42336, H1047R)
- Assay comment: ADP-Glo Biochemical PIK3CA Kinase Assay
- Experimental: Compounds to be assayed were plated in 16 doses of 1:2 serial dilutions (20 nL volume each well) on a 1536-well plate, and the plate warmed to room temperature. […] To the well was added 1 μL of 200 μM ATP and 20 μM of diC8-PIP2 in Substrate Assay Buffer (50 mM HEPES pH7.4, 50 mM NaCl, 5 mM DTT and 0.03% CHAPS) to start the reaction, and the plate was shaken for 10 seconds, then spun briefly at 1500 rpm, and then incubated for 60 minutes at room temperature. […]

Give the reported IC50 for this compound. CC(C(CO)CC(=O)Nc1cccc2c1C(c1cc(F)ccc1Cl)NC2=O)C(F)(F)F (mixture of isomers)
10 to 100 µM

Give the reported IC50 for this compound. O=C(Nc1cc(OC[C@H]2CCCN2)cc2c1C(c1cc(F)ccc1Cl)NC2=O)c1cc(F)cc(C(F)(F)F)c1 (mixture of isomers)
0.1 to 0.5 µM

Give the reported IC50 for this compound. O=C1N[C@@H](c2cc(F)ccc2Cl)c2c(NC(=O)N3C[C@](O)(C(F)(F)F)c4cc(F)ccc43)cc(N3CCCC3=O)cc21 (single isomer, unassigned)
10 to 100 µM

Proceed to the following item.
Give the reported IC50 for this compound. Cc1ncc(-c2cc(NC(=O)c3cc(F)cc(C(F)(F)F)c3)c3c(n2)C(=O)N[C@@H]3c2cc(F)ccc2Cl)cn1
0.5 to 1 µM

Provenance of the data: patent US12581252B2
